We begin with a simple list: items and their reported Emax.
Biological target: F508delCFTR (Homo sapiens, UniProt P13569, DEL508-508)
Construct: expressed in transfected cells; host or cells: CFBE41o- human lung-derived epithelial cells (CFBE4lo-F508delCFTR-HRP), doxycycline-inducible
Sequence (P13569 with tags, fused parts or gaps DEL508-508): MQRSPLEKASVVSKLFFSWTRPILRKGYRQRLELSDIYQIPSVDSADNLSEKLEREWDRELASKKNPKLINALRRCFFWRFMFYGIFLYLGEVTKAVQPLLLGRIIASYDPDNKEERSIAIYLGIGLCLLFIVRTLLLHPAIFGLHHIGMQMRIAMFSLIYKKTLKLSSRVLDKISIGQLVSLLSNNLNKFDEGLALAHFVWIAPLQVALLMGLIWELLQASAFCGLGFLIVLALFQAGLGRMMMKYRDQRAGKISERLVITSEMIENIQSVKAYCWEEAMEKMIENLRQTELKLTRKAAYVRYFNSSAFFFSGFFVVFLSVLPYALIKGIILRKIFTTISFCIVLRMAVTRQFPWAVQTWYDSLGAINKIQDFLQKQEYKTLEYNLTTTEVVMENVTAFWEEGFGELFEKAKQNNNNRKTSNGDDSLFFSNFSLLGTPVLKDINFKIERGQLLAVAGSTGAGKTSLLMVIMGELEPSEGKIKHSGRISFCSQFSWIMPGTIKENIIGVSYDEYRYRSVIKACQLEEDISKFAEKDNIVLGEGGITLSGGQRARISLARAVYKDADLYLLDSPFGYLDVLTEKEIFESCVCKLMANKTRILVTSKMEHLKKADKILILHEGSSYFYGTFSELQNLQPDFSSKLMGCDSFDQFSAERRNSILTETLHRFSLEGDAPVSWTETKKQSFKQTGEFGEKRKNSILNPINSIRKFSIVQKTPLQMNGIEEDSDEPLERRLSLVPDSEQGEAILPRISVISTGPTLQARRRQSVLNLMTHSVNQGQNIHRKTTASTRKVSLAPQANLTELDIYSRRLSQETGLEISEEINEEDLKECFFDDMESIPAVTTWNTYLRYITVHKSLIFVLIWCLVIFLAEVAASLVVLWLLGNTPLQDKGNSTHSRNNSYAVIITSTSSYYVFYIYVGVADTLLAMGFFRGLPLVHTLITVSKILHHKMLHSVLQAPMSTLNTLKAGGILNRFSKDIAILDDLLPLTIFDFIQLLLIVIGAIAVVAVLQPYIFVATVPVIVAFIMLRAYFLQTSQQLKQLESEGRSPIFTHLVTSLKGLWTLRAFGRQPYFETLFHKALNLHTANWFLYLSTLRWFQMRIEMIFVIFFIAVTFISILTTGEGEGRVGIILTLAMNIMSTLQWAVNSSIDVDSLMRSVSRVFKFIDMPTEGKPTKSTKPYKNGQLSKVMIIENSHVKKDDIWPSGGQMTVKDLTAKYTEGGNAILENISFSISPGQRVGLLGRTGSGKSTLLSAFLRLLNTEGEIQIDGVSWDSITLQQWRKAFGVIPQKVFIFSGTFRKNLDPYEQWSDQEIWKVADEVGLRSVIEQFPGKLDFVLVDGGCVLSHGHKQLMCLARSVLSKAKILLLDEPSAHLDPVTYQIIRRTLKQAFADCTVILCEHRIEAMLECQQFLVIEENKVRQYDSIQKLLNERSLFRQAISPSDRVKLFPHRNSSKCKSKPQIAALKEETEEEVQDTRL
Experiment: Cell Surface Expression-Horse Radish Peroxidase (CSE-HRP) Assay
Type: cell-based
Conditions: CSE-HRP; without co-corrector; maximum at any tested concentration, normalized to on-plate positive control; read-out: Maximum % activity (without co-corrector)
Procedure: Cell Surface Expression-Horse Radish Peroxidase (CSE-HRP) Assay The development was achieved by expressing the F508delCFTR mutation along with a horseradish peroxidase (HRP) in the fourth exofacial loop, and then measuring the HRP activity using luminescence readout from these cells, CFBE4lo-F508delCFTR-HRP, that were incubated overnight with the test corrector compounds, either without or with the co-corrector. […] The raw counts from the experiment were analyzed using Accelrys® Assay Explorer v3.3. […]

Answered examples (2):
COc1ccc(C2CCCC2)cc1CN[C@H]1[C@H](C(C)(C)C)[C@@H](C(=O)O)N(C(=O)C2CCCCC2)[C@H]1c1ccccc1
> 200%
COc1ccc(Cl)cc1CN[C@@H]1[C@@H](C2CC2)[C@H](C(=O)O)N(C(=O)C2CCCCC2)[C@@H]1c1ccccc1 (racemic)
100 to 200%

query: In one line, give reported Emax of the entry COc1ccccc1CN[C@@H]1[C@@H](C(C)(C)C)[C@H](C(=O)O)N(C(=O)OC(C)C)[C@@H]1c1ccccc1 (racemic) .
result: 100 to 200%

---

We begin with a simple list: items and their reported Emax.
molecular target: F508delCFTR (Homo sapiens, UniProt P13569, DEL508-508); construct: expressed in transfected cells; host or cells: CFBE41o- human lung-derived epithelial cells (CFBE4lo-F508delCFTR-HRP), doxycycline-inducible; experiment: Cell Surface Expression-Horse Radish Peroxidase (CSE-HRP) Assay; type: cell-based; details: test compound without co-corrector; maximum at any tested concentration, normalized to on-plate positive control; read-out: Maximum % activity (without co-corrector);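 as to Maximum % activity (without co-corrector): percent of the 2 µM on-plate positive control corrector response above DMSO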

Answered examples (3):
COc1ccc(Cl)cc1CN[C@@H]1[C@@H](C(C)(C)C)[C@H](C(=O)O)N(C(=O)[C@H](OC)c2ccccc2)[C@@H]1c1ccccc1N(C)C
< 100%
COc1ccc(C2CC2)cc1CN[C@H]1[C@H](C(C)(C)C)[C@@H](C(=O)O)N(C(=O)C2CCCCC2)[C@H]1c1ccccc1
> 200%
COc1ccc(C(C)(C)C)cc1CN[C@H]1[C@H](C(C)(C)C)[C@@H](C(=O)O)N(C(=O)c2cnn(C(C)(C)C)c2C(F)(F)F)[C@H]1c1ccccc1
100 to 200%

query: In one line, give reported Emax of the entry "COc1nc(C(C)(C)C)ccc1CN[C@H]1[C@H](C(C)(C)C)[C@@H](C(=O)O)N(C(=O)OC(C)C)[C@H]1c1cccnc1OC(C)C" .
result: 100 to 200%

query: In one line, give reported Emax of the entry "COc1ccc(C(C)(C)C)cc1CN[C@H]1[C@H](C(C)(C)C)[C@@H](C(=O)O)N(C(=O)c2cn(C)c3ccccc23)[C@H]1c1ccccc1" .
result: < 100%

---

molecular target: F508delCFTR (Homo sapiens, UniProt P13569, DEL508-508); construct: expressed in transfected cells; host or cells: CFBE41o- human lung-derived epithelial cells (CFBE4lo-F508delCFTR-HRP), doxycycline-inducible; test: Cell Surface Expression-Horse Radish Peroxidase (CSE-HRP) Assay; type: cell-based; details: without co-corrector; maximum at any tested concentration, normalized to on-plate positive control; read-out: Maximum % activity (without co-corrector);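 as to Maximum % activity (without co-corrector): percent of the 2 µM on-plate positive control corrector response above DMSO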
We begin with a simple list: items and their reported Emax.

COc1ncc(C(F)(F)F)cc1CN[C@H]1[C@H](C(C)(C)C)[C@@H](C(=O)O)N(C(=O)C2CCCCC2)[C@H]1c1ccc(F)cc1
100 to 200%
COc1ccc(C(C)(C)C)cc1CN[C@H]1[C@H](C(C)(C)C)[C@@H](C(=O)O)N(C(=O)C2CCOC2C(C)C)[C@H]1c1ccccc1 (stereo partly drawn)
> 200%
COc1cc(Cl)nc(N[C@@H]2[C@@H](C(C)(C)C)[C@H](C(=O)O)N(C(=O)C3CCCCC3)[C@@H]2c2ccccc2)n1 (racemic)
< 100%
COc1ncc(C2CCC2)cc1CN[C@H]1[C@H](C(C)(C)C)[C@@H](C(=O)O)N(C(=O)C2CCCCC2)[C@H]1c1cccnc1OC
100 to 200%
COc1ccc(C(F)(F)F)cc1C(C)N[C@@H]1[C@@H](C(C)(C)C)[C@H](C(=O)O)N(C(=O)C2CCCCC2)[C@@H]1c1ccccc1 (mixture of isomers)
< 100%
COc1ccc(C(C)(C)C)cc1CN[C@H]1[C@H](C(C)(C)OC)[C@@H](C(=O)O)N(C(=O)C2CCCCC2)[C@H]1c1cccnc1N(C)C
> 200%
COc1ccc(C(C)(C)C)cc1CN[C@H]1[C@H](C(C)(C)C)[C@@H](C(=O)O)N(C(=O)C2(c3ccccc3)CC2)[C@H]1c1cccnc1OC
100 to 200%
COc1ncc(C(F)(F)F)cc1CN[C@H]1[C@H](C(C)(C)C)[C@@H](C(=O)O)N(C(=O)C2CCCC(F)(F)C2)[C@H]1c1ccccc1 (stereo partly drawn)
100 to 200%
CC(C)(C)[C@H]1[C@H](NCC2(c3ccccc3Cl)CCOCC2)[C@H](c2ccccc2)N(C(=O)C2CCCCC2)[C@@H]1C(=O)O
100 to 200%
COc1ccc(C(C)(C)C)cc1CN[C@H]1[C@H](C(C)(C)C)[C@@H](C(=O)O)N(C(=O)OC(C)C)[C@H]1c1ccccc1OC
100 to 200%

query: In one line, give reported Emax of the entry "COc1ccc(-c2ccccc2)cc1CN[C@H]1[C@H](C(C)(C)OC)[C@@H](C(=O)O)N(C(=O)C2CCCCC2)[C@H]1c1ccccc1" .
result: > 200%

query: In one line, give reported Emax of the entry COc1ccc(C(C)(C)C)cc1CN[C@H]1[C@H](C(C)(C)C)[C@@H](C(=O)O)N(C(=O)[C@@H]2C[C@H]2c2cccnc2)[C@H]1c1ccccc1 (relative stereo) .
result: > 200%

---

target: F508delCFTR (Homo sapiens, UniProt P13569, DEL508-508); construct: expressed in transfected cells; host or cells: CFBE41o- human lung-derived epithelial cells (CFBE4lo-F508delCFTR-HRP), doxycycline-inducible; experiment: Cell Surface Expression-Horse Radish Peroxidase (CSE-HRP) Assay; format: cell-based; details: CSE-HRP; without co-corrector; maximum at any tested concentration, normalized to on-plate positive control; read-out: Maximum % activity (without co-corrector);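 as to Maximum % activity (without co-corrector): percent of the 2 µM on-plate positive control corrector response above DMSO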
property-name: Emax

Answered examples (2):
COc1cc(C(F)(F)F)ccc1CN[C@H]1[C@H](C(C)(C)C)[C@@H](C(=O)O)N(C(=O)[C@@H]2CCCCO2)[C@H]1c1cccnc1OC [II-92]
100 to 200%
CC(C)OC(=O)N1[C@H](C(=O)O)[C@@H](C(C)(C)C)[C@H](NCCc2ccccc2)[C@@H]1c1ccccc1 [Example I-263]
< 100%

query: In one line, give reported Emax of the entry COc1ccc(C(C)C)cc1CN[C@H]1[C@H](C(C)(C)C)[C@@H](C(=O)O)N(C(=O)OC(C)C)[C@H]1c1ccccc1 [II-169] .
result: > 200%

query: In one line, give reported Emax of the entry COc1ccc(C(F)(F)F)cc1CN[C@H]1[C@H](C(C)(C)C)[C@@H](C(=O)O)N(C(=O)OC(C)C)[C@H]1c1cccc(Cl)c1 [Example I-252] .
result: > 200%

query: In one line, give reported Emax of the entry COc1ccc(C2(C)CCC2)cc1CN[C@H]1[C@H](C(C)(C)C)[C@@H](C(=O)O)N(C(=O)[C@@H]2CCCO2)[C@H]1c1ccccc1Br [Example I-295] .
result: > 200%

query: In one line, give reported Emax of the entry COc1cc2c(cc1CN[C@H]1[C@H](C(C)(C)C)[C@@H](C(=O)O)N(C(=O)C3CCCCC3)[C@H]1c1ccccc1)CCCC2 [II-125] .
result: > 200%

---

target: F508delCFTR (Homo sapiens, UniProt P13569, DEL508-508); construct: expressed in transfected cells; host or cells: CFBE41o- human lung-derived epithelial cells (CFBE4lo-F508delCFTR-HRP), doxycycline-inducible; test: Cell Surface Expression-Horse Radish Peroxidase (CSE-HRP) Assay; type: cell-based; conditions: test compound without co-corrector; read-out: EC50 (without co-corrector)
We begin with a simple list: items and their reported EC50.

Answered examples (6):
CC(C)(C)[C@H]1[C@H](NCc2ccc3c(c2)OCCCO3)[C@H](c2ccccc2)N(C(=O)C2CCCCC2)[C@@H]1C(=O)O
> 10 µM
COc1ccc(C2=CCOCC2)cc1CN[C@H]1[C@H](C(C)(C)C)[C@@H](C(=O)O)N(C(=O)C2CCCCC2)[C@H]1c1ccccc1
1 to 10 µM
COc1ccc(C(C)(C)C)cc1CN[C@H]1[C@H](C(C)(C)C)[C@@H](C(=O)O)N(C(=O)CC2CCCCC2)[C@H]1c1ccccc1
1 to 10 µM
COc1ccc(SC(F)(F)F)cc1CN[C@H]1[C@H](C(C)(C)C)[C@@H](C(=O)O)N(C(=O)OC(C)C)[C@H]1c1cccnc1N(C)C
1 to 10 µM
COc1ccc(C(C)(C)C)cc1CN[C@H]1[C@H](C(C)(C)C)[C@@H](C(=O)O)N(C(=O)C(C)Sc2ccccc2)[C@H]1c1ccccc1 (stereo partly drawn)
< 1 µM
COc1cccnc1CN[C@@H]1[C@@H](C(C)(C)C)[C@H](C(=O)O)N(C(=O)C2CCCCC2)[C@@H]1c1ccccc1 (racemic)
> 10 µM

query: In one line, give reported EC50 of the entry CC(C)OC(=O)N1[C@H](c2ccccc2)[C@H](Nc2cc(C(F)(F)F)ccn2)[C@@H](C(C)(C)C)[C@@H]1C(=O)O (racemic) .
result: 1 to 10 µM

query: In one line, give reported EC50 of the entry COc1ccc(CN[C@@H]2[C@@H](C(C)(C)C)[C@H](C(=O)O)N(C(=O)OC(C)C)[C@@H]2c2ccccc2)c(OC)c1 (racemic) .
result: 1 to 10 µM

query: In one line, give reported EC50 of the entry "COc1cc(C(F)(F)F)ccc1CN[C@H]1[C@H](C(C)(C)C)[C@@H](C(=O)O)N(C(=O)C2CCCCC2)[C@H]1c1ccccc1" .
result: 1 to 10 µM

query: In one line, give reported EC50 of the entry "COc1ccc(C(C)(C)C)cc1CN[C@H]1[C@H](C(C)(C)OC)[C@@H](C(=O)O)N(C(=O)OC(C)C)[C@H]1c1cccnc1N(C)C" .
result: 1 to 10 µM

query: In one line, give reported EC50 of the entry COc1ccc(C(C)(C)C)cc1CN[C@H]1[C@H](C(C)(C)C)[C@@H](C(=O)O)N(C(=O)C2(C)CCc3c(Cl)cccc32)[C@H]1c1ccccc1 (stereo partly drawn) .
result: 1 to 10 µM

query: In one line, give reported EC50 of the entry "COc1ncc(C(F)(F)F)cc1CN[C@H]1[C@H](C2(C)CC2)[C@@H](C(=O)O)N(C(=O)C2CCCCC2)[C@H]1c1ccccc1" .
result: 1 to 10 µM

query: In one line, give reported EC50 of the entry "COc1ncc(C2CCC2)cc1CN[C@H]1[C@H](C(C)(C)C)[C@@H](C(=O)O)N(C(=O)[C@@H]2CCCO2)[C@H]1c1ccccc1C(C)C" .
result: 1 to 10 µM

query: In one line, give reported EC50 of the entry CC(C)(C)[C@@H]1[C@@H](NCc2cccc(OC3CCOCC3)n2)[C@@H](c2ccccc2)N(C(=O)C2CCCCC2)[C@H]1C(=O)O (racemic) .
result: > 10 µM

query: In one line, give reported EC50 of the entry Cc1cc(C(F)(F)F)cc(N[C@H]2[C@H](C(C)(C)C)[C@@H](C(=O)O)N(C(=O)C3CCCCO3)[C@H]2c2cccnc2N(C)C)n1 (relative stereo) .
result: 1 to 10 µM

query: In one line, give reported EC50 of the entry "COc1ncc(C(C)(C)C)cc1N[C@H]1[C@H](C(C)(C)C)[C@@H](C(=O)O)N(C(=O)C2CCCCC2)[C@H]1c1ccccc1" .
result: 1 to 10 µM

query: In one line, give reported EC50 of the entry "COc1ncc(-c2ccc(F)cc2C)cc1CN[C@H]1[C@H](C(C)(C)C)[C@@H](C(=O)O)N(C(=O)C2CCCCC2)[C@H]1c1ccccc1" .
result: < 1 µM

query: In one line, give reported EC50 of the entry COc1ccc(Cl)cc1CN[C@@H]1[C@@H](C(C)(C)C)[C@H](C(=O)O)N(C(=O)C2CCCCC2)[C@@H]1c1ccccc1 (racemic) .
result: 1 to 10 µM
